Listed compounds paired with reported Ratio IC50/EC50
experiment: Selectivity ratio of IC50 for human 5-HT3A expressed in HEK293 cells to EC50 for rat alpha7 nAChR expressed in HEK293 cells co-expressing human RIC3; format: ADME, cell-based
observation.type: Ratio IC50/EC50

- compound: "COc1ccc2sc(NC3=NCC4(CN5CCC4CC5)O3)nc2c1 (stereo not drawn)"
  observation.type: "Ratio IC50/EC50"
  assay.value: 0.02
- compound: "c1cc(NC2=NCC3(CN4CCC3CC4)O2)ccn1 (racemic)"
  observation.type: "Ratio IC50/EC50"
  assay.value: 5
- compound: "c1ccc2sc(NC3=NCC4(CN5CCCC4C5)O3)nc2c1 (racemic)"
  observation.type: "Ratio IC50/EC50"
  assay.value: "< 0.01"
- compound: "c1ccc(NC2=NCC3(CN4CCC3CC4)O2)cc1 (racemic)"
  observation.type: "Ratio IC50/EC50"
  assay.value: 0.04
- compound: "CCOc1ccc2nc(NC3=NCC4(CN5CCC4CC5)O3)sc2c1 (stereo not drawn)"
  observation.type: "Ratio IC50/EC50"
  assay.value: 42
- compound: "Cc1ccc2nc(NC3=NCC4(CN5CCC4CC5)O3)sc2c1 (stereo not drawn)"
  observation.type: "Ratio IC50/EC50"
  assay.value: 32
- compound: "COc1cccc2sc(NC3=NCC4(CN5CCC4CC5)O3)nc12 (stereo not drawn)"
  observation.type: "Ratio IC50/EC50"
  assay.value: 0.02
- compound: "c1ccc2sc(NC3=NCC4(CN5CCC4CC5)O3)nc2c1 (racemic)"
  observation.type: "Ratio IC50/EC50"
  assay.value: "1 to 1.8"

---

test: Selectivity ratio of IC50 for human 5-HT3A expressed in HEK293 cells to EC50 for rat alpha7 nAChR expressed in HEK293 cells co-expressing human RIC3; assay type: ADME, cell-based
Threshold check on Ratio IC50/EC50: strictly below 6 is Met; on or above 6 is Not met.

- molecule: "c1cncc(/N=C2\\NCC3(CN4CCC3CC4)O2)c1 (racemic)"
  class.name: "Met"
- molecule: "c1ccc2sc(NC3=NC[C@@]4(CN5CCC4CC5)O3)nc2c1"
  class.name: "Met"
- molecule: "c1nc2cc(NC3=NCC4(CN5CCC4CC5)O3)ccc2s1 (racemic)"
  class.name: "Not met"
- molecule: "c1ccc2sc(NC3=NCC4(CN5CCC[C@@H]4C5)O3)nc2c1 (mixture of isomers)"
  class.name: "Met"
- molecule: "COc1cc2nc(NC3=NCC4(CN5CCC4CC5)O3)sc2cc1OC (stereo not given)"
  class.name: "Met"
- molecule: "Clc1ccc2nc(NC3=NCC4(CN5CCC4CC5)O3)sc2c1 (stereo not given)"
  class.name: "Not met"
- molecule: "c1ccc(-c2ccc(NC3=NC[C@@]4(CN5CCC4CC5)O3)nc2)cc1"
  class.name: "Not met"

---

assay: Plasma concentration in C57Bl/6 mouse NOR model at 1 mg/kg, sc measured after 0.5 hrs; format: ADME, organism-based

- structure.smiles: "c1ccc2cc(NC3=NC[C@@]4(CN5CCC4CC5)O3)ncc2c1"
  concentration at 0.5 h, nM: 184

---

biological target: Cytochrome P450 2C19 (Homo sapiens)
Sequence (P33261 whole entry): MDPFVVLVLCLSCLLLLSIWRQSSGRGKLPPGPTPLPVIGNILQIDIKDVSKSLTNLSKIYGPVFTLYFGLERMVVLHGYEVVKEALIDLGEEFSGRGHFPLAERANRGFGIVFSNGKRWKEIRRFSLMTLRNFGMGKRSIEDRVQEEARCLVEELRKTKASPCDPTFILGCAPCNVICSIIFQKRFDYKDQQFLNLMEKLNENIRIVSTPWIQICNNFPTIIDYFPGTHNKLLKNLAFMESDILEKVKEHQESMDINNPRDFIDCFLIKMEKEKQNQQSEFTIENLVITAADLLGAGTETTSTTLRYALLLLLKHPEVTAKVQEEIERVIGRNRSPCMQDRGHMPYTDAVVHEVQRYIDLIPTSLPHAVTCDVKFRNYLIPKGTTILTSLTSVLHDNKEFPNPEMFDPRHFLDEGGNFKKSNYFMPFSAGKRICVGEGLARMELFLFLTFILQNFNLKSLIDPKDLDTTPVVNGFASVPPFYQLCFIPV
observation.type: IC50

- structure.smiles: "c1ccc2cc(NC3=NC[C@@]4(CN5CCC4CC5)O3)ncc2c1"
  assay.value: "> 40 µM"

---

biological target: 5-hydroxytryptamine receptor 3A (Homo sapiens); experiment: Antagonist activity at human 5-HT3A expressed in HEK293 cells assessed as reduction in acetylcholine-induced activity preincubated for 30 mins followed by addition of acetylcholine measured for 2 mins by Fluo-4AM dye based FLIPR assay
Sequence (P46098 whole entry): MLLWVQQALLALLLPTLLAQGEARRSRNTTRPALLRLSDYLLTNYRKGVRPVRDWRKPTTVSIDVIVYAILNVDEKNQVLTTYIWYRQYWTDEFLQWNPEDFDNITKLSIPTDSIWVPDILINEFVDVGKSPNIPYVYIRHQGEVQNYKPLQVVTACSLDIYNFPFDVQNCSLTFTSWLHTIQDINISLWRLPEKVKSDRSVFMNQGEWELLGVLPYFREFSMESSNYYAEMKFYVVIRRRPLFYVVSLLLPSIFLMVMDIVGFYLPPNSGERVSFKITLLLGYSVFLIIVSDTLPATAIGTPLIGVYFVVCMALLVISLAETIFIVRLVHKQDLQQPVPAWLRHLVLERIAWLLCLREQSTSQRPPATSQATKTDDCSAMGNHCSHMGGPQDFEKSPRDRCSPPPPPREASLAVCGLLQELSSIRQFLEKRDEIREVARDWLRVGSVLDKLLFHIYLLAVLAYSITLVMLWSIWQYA

- compound: "COc1ccc2nc(/N=C3/OC4(CN5CCC4CC5)CN3C)sc2c1 (configuration not stated)"
  qual: ">"
  IC50 (nM): 100000
- compound: "c1ccc2sc(NC3=NCC4(CN5CCC4C5)O3)nc2c1 (racemic)"
  qual: "="
  IC50 (nM): 35
- compound: "c1csc(NC2=NCC3(CN4CCC3CC4)O2)n1 (racemic)"
  qual: "="
  IC50 (nM): 25
- compound: "c1cc(NC2=NCC3(CN4CCC3CC4)O2)ccn1 (racemic)"
  qual: "="
  IC50 (nM): 58000
- compound: "c1ccc(-c2ccc(NC3=NC[C@@]4(CN5CCC4CC5)O3)nc2)cc1"
  qual: "="
  IC50 (nM): 22000
- compound: "c1ccc(-c2cnc(NC3=NCC4(CN5CCC4CC5)O3)s2)cc1 (racemic)"
  qual: "="
  IC50 (nM): 20000
- compound: "c1cncc(/N=C2\\NCC3(CN4CCC3CC4)O2)c1 (racemic)"
  qual: "="
  IC50 (nM): 2300
- compound: "c1ccc2sc(NC3=NC[C@@]4(CN5CC[C@@H]4C5)O3)nc2c1"
  qual: "="
  IC50 (nM): 480
- compound: "c1ccc2sc(NC3=NC[C@]4(CN5CCC4CC5)O3)nc2c1"
  qual: "="
  IC50 (nM): 7300
- compound: "COc1cc2nc(NC3=NCC4(CN5CCC4CC5)O3)sc2cc1OC (configuration not stated)"
  qual: "="
  IC50 (nM): 27000
- compound: "Clc1ccc2nc(NC3=NCC4(CN5CCC4CC5)O3)sc2c1 (configuration not stated)"
  qual: "="
  IC50 (nM): 8100
- compound: "CCOc1ccc2nc(NC3=NCC4(CN5CCC4CC5)O3)sc2c1 (configuration not stated)"
  qual: "="
  IC50 (nM): 14000
- compound: "COc1ccc2nc(NC3=NC[C@]4(CN5CCC4CC5)O3)sc2c1"
  qual: ">"
  IC50 (nM): 97000
- compound: "Oc1ccc2nc(NC3=NCC4(CN5CCC4CC5)O3)sc2c1 (configuration not stated)"
  qual: "="
  IC50 (nM): 11000
- compound: "c1ccc2nc(NC3=NC[C@@]4(CN5CCC4CC5)O3)ccc2c1"
  qual: "="
  IC50 (nM): 8
- compound: "c1ccc2sc(NC3=NCC4(CN5CCC[C@@H]4C5)O3)nc2c1 (mixture of isomers)"
  qual: "="
  IC50 (nM): 950
- compound: "COc1cccc2sc(NC3=NCC4(CN5CCC4CC5)O3)nc12 (configuration not stated)"
  qual: "="
  IC50 (nM): 13
- compound: "c1ccc(NC2=NCC3(CN4CCC3CC4)O2)cc1 (racemic)"
  qual: "="
  IC50 (nM): 230
- compound: "c1nc2cc(NC3=NCC4(CN5CCC4CC5)O3)ccc2s1 (racemic)"
  qual: "="
  IC50 (nM): 41000
- compound: "c1ccc(-c2csc(NC3=NCC4(CN5CCC4CC5)O3)n2)cc1 (racemic)"
  qual: "="
  IC50 (nM): 11
- compound: "c1ccc2sc(NC3=NC[C@@]4(CN5CCC4CC5)O3)nc2c1"
  qual: "="
  IC50 (nM): 21

---

experiment: Clearance in rat; type: ADME; conditions: in vivo

- structure.smiles: "COc1ccc2nc(NC3=NC[C@@]4(CN5CCC4CC5)O3)sc2c1"
  value.unit: "mL/min/kg"
  clearance: 320

---

target: Neuronal acetylcholine receptor subunit alpha-7 (Rattus norvegicus); test: Partial agonist activity at rat alpha7 nAChR expressed in HEK293 cells co-expressing human RIC3 at holding potential of -90 mV by whole-cell voltage clamp technique; format: cell-based
Sequence (Q05941 whole entry): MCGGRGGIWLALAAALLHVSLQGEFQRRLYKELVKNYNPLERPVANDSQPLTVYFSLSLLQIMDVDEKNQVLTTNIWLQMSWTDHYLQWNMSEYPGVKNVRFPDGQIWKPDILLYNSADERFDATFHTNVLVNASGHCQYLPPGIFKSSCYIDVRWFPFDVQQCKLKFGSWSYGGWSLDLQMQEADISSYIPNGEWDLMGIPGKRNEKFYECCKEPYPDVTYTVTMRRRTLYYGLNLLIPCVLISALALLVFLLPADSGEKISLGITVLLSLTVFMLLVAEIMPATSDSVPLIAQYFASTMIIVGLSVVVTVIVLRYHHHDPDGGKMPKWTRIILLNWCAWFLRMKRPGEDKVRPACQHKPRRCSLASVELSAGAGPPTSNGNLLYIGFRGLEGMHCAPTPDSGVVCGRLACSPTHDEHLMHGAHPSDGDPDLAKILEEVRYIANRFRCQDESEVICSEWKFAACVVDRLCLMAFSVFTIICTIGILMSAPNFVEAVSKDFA
pEC50: −log10 of the molar value.
pEC50 listing for selected molecules.

- molecule: "c1ccc2sc(NC3=NCC4(CN5CCC4CC5)O3)nc2c1 (racemic)"
  tgt: "Neuronal acetylcholine receptor subunit alpha-7 (Rattus norvegicus)"
  pEC50: 6.30
- molecule: "c1csc(NC2=NCC3(CN4CCC3CC4)O2)n1 (racemic)"
  tgt: "Neuronal acetylcholine receptor subunit alpha-7 (Rattus norvegicus)"
  pEC50: 5.89
- molecule: "c1ccc2sc(NC3=NC[C@@]4(CN5CC[C@@H]4C5)O3)nc2c1"
  tgt: "Neuronal acetylcholine receptor subunit alpha-7 (Rattus norvegicus)"
  pEC50: 6.55
- molecule: "COc1ccc2nc(NC3=NCC4(CN5CCC4CC5)O3)sc2c1 (stereo not given)"
  tgt: "Neuronal acetylcholine receptor subunit alpha-7 (Rattus norvegicus)"
  pEC50: 6.22
- molecule: "COc1ccc2nc(NC3=NC[C@@]4(CN5CCC4CC5)O3)sc2c1"
  tgt: "Neuronal acetylcholine receptor subunit alpha-7 (Rattus norvegicus)"
  pEC50: 6.40

---

Some molecules, each annotated with its measured Ratio IC50/EC50.
assay: Selectivity ratio of IC50 for human 5-HT3A expressed in HEK293 cells to EC50 for rat alpha7 nAChR expressed in HEK293 cells co-expressing human RIC3; type: ADME, cell-based

- molecule: "COc1ccc2nc(NC3=NCC4(CN5CCC4CC5)O3)sc2c1 (stereo unspecified)"
  Ratio IC50/EC50: 153
- molecule: "COc1ccc2nc(NC3=NC[C@@]4(CN5CCC4CC5)O3)sc2c1"
  Ratio IC50/EC50: 66
- molecule: "COc1ccc2nc(NC3=NCCC4(CN5CCC4CC5)O3)sc2c1 (stereo unspecified)"
  Ratio IC50/EC50: 17
- molecule: "c1ccc2nc(NC3=NC[C@@]4(CN5CCC4CC5)O3)ccc2c1"
  Ratio IC50/EC50: 0.3
- molecule: "Oc1ccc2nc(NC3=NCC4(CN5CCC4CC5)O3)sc2c1 (stereo unspecified)"
  Ratio IC50/EC50: 11
- molecule: "c1csc(NC2=NCC3(CN4CCC3CC4)O2)n1 (racemic)"
  Ratio IC50/EC50: 0.1
- molecule: "c1ccc2sc(NC3=NCC4(CN5CCC4C5)O3)nc2c1 (racemic)"
  Ratio IC50/EC50: 0.06
- molecule: "c1ccc2sc(NC3=NC[C@@]4(CN5CC[C@@H]4C5)O3)nc2c1"
  Ratio IC50/EC50: 22
- molecule: "c1ccc(-c2csc(NC3=NCC4(CN5CCC4CC5)O3)n2)cc1 (racemic)"
  Ratio IC50/EC50: 0.02
- molecule: "COc1ccc2nc(NC3=NC[C@]4(CN5CCC4CC5)O3)sc2c1"
  Ratio IC50/EC50: 85

Hello, the source for this data is ChEMBL document CHEMBL3877302, in case you need it.
